- experimental.target: T1, recombinant human nectin-4 (human, UniProt Q96NY8 32-349)
- T1 construct: nectin-4, human, recombinant; also called complete extracellular domain of nectin-4; source: bought: R&D Systems (Catalog number 2659-N4)
- T1 sequence (looked up): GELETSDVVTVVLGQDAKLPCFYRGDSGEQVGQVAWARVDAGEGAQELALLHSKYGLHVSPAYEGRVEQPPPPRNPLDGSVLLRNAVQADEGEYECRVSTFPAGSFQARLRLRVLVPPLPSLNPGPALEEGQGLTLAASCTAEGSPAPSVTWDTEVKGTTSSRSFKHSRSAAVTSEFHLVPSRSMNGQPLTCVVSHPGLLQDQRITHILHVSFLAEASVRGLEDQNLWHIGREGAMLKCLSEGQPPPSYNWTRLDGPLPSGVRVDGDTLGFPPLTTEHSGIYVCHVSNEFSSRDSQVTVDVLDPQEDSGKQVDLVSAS
- measurement.protocol: SPR; Biacore T200, human nectin-4 immobilised on CM5 chip by amine coupling, peptides as analytes, single-cycle kinetics, 25 °C, HBS-P+ pH 7.4, no DMSO, 1:1 binding model
- conditions.used: both partners purified
Numbered stars: 1 amine (or outer) side, 2 acyl side, 3 side chain; on linkers, the order of the positions; unused ones are H or OH. Bridge positions count the residues as written; N and C are the ends. Square brackets hold non-standard residues; d marks the D form. * marks the point of attachment. (R)‑NODAGA = O=C(O)CN1CCN(CC(=O)O)CCN([C@H](CCC(=O)*)C(=O)O)CC1; DOTA = O=C(O)CN1CCN(CC(=O)O)CCN(CC(=O)*)CCN(CC(=O)O)CC1; TATA = O=C(CC[*:1])N1CN(C(=O)CC[*:2])CN(C(=O)CC[*:3])C1; 1Nal = N[C@@H](Cc1cccc2ccccc12)C(=O)O; 2Nal = N[C@@H](Cc1ccc2ccccc2c1)C(=O)O; Hyp = O=C(O)[C@@H]1C[C@@H](O)CN1; hArg = N=C(N)NCCCC[C@H](N)C(=O)O
readout.name: koff (s⁻¹)

• {DOTA}-CP[2Nal][dD]CMRDWSTP[Hyp]WC-OH (linker 1-5-15 via TATA) [8d (N188)] = 0.00881
• {(R)‑NODAGA}-CP[2Nal][dD]CM[hArg]DWSTP[Hyp]WC-NH2 (linker 1-5-15 via TATA) [9] = 0.0765
• {DOTA}-CP[2Nal][dD]CMRDWSTP[Hyp]WC-NH2 (linker 1-5-15 via TATA) [8c] = 0.00239
• {(R)‑NODAGA}-CP[2Nal][dD]CMRDWSTP[Hyp]WC-NH2 (linker 1-5-15 via TATA) [8a] = 0.0433
• {(R)‑NODAGA}-CP[1Nal][dD]CM[hArg]DWSTP[Hyp]WC-NH2 (linker 1-5-15 via TATA; also: NODAGA complexed with natGa) [natGa-1e] = 0.0026
